These data points were gathered from the Immune Epitope Database (IEDB).

- target system: HLA-B*15:17
- experiment summary: IEDB peptide-MHC binding, purified MHC/direct/fluorescence; filed as Kd, often an IC50 or EC50 that approximates it; bounds were set here for any values at or beyond the usual limits of such assays
- condition notes: source organism: Giardia lamblia ATCC 50803
measured parameter: pKd
pKd field: float, defined as -log10 of concentration (mol/L).

## Input Could you share which pKd value was measured for "QPWTPVSSF" ?
## Output 5.58

----------
- target system: HLA-B*15:17
- experiment summary: IEDB peptide-MHC binding, purified MHC/competitive/fluorescence; filed as Kd, often an IC50 or EC50 that approximates it; bounds were set here for any values at or beyond the usual limits of such assays
- condition notes: source organism: Vibrio parahaemolyticus AN-5034
pKd: −log10 of the molar value.
measured parameter: pKd

## Input # input sequence: "DTWHGFKNM" ; wanted: its pKd
## Output ≤ 4.70
